From: the supplement of paper PMC10567573

B1: SFRS1 (parent)
chain: RDIDLKNRRGGPPFAFVEFEDPRD

variants of: B1; experiment: protein stability index of a GFP-peptide fusion (GPS, HEK-293T) (PSI 1-6); higher = more stable; details: c terminus: a fixed tail appended;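 further: lentivirally expressed fusions sorted by FACS into six bins by GFP to DsRed ratio, PSI derived from sequencing read proportions per bin multiplied by bin number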
# protein stability index per entry
I only need the number, thanks.

// worked examples, protein stability index included
* P13E | 4.83
* E20I | 2.56
* G10D | 4.15
* F16N | 4.91

// switching to the query variant
stdin: Dear colleague, I am looking for the recorded protein stability index of the following variant: P12T
stdout: 4.37
